List of IC50 values.
Biological target: Human PKMYT1 (Homo sapiens)
Construct: Human PKMYT1 75-362 was cloned as a TEV cleavable 6xHis fusion; 6xHis (TEV cleavable) (cleaved yes); made in house; host or cells: bacterial cells
Experiment: PKMYT1 biochemical ADP-Glo enzymatic assay
Details: ADP-Glo; 15 nM PKMYT1 kinase domain, 500 µM ATP, 60 minutes at 26° C.; banded
Protocol: Human PKMYT1 75-362 was cloned as a TEV cleavable 6xHis fusion in bacterial cells. After purification on a Ni++HiTrap Chelating HP column, the His-tag was cleaved using TEV protease. […] PKMYT1 biochemical assay: Inhibition of PKMYT1 was assessed using the ADP-Glo™ Max Detection System from Promega. […] Inhibition of PKMYT1 by small molecule inhibitors results in a retardation of luminescence above background. The intrinsic ATPase activity of PKMYT1 was assessed according to the following protocol. […]

Inquiry: Any idea what IC50 was measured for Cc1ccc(O)c(C)c1NC(=O)c1cnc(Nc2cncc(-c3ccc(F)cc3)c2)s1 ?
Reply text: 1000 to 11000 nM

Inquiry: Request: Cc1ccc(O)c(C)c1NC(=O)c1cnc(Nc2cc(C)n(CC(C)C)n2)s1
Reply text: < 50 nM

Inquiry: Request: Cc1ccc(O)c(C)c1NC(=O)c1cnc(Nc2ccn(CC(=O)N[C@H](C)CO)n2)s1
Reply text: < 50 nM

Inquiry: Request: Cc1ccc(O)c(C)c1NC(=O)c1cnc(NCCCN2CCN(C)CC2)s1
Reply text: 1000 to 11000 nM

Inquiry: Request: Cc1ccc(NC(=O)C(C)(C)O)nc1Nc1ncc(C(=O)Nc2c(C)ccc(O)c2C)s1.Cl [BAA-342, hydrochloride]
Reply text: < 50 nM

Inquiry: Request: Cc1ccc(O)c(C)c1NC(=O)c1cnc(NCCO)s1
Reply text: 1000 to 11000 nM

Inquiry: Request: Cc1ccc(O)c(C)c1NC(=O)c1cnc(Nc2ccn(CC(=O)N3CCC(C)(O)CC3)n2)s1
Reply text: < 50 nM

Inquiry: Request: Cc1ccc(O)c(C)c1NC(=O)c1cnc(Nc2ccnc(-c3ccc(F)cc3)c2)s1
Reply text: 50 to 1000 nM

###

Molecular target: WEE1 (Homo sapiens, UniProt P30291)
Construct: purchased Thermo Fisher PR7373A
Sequence (P30291 whole entry): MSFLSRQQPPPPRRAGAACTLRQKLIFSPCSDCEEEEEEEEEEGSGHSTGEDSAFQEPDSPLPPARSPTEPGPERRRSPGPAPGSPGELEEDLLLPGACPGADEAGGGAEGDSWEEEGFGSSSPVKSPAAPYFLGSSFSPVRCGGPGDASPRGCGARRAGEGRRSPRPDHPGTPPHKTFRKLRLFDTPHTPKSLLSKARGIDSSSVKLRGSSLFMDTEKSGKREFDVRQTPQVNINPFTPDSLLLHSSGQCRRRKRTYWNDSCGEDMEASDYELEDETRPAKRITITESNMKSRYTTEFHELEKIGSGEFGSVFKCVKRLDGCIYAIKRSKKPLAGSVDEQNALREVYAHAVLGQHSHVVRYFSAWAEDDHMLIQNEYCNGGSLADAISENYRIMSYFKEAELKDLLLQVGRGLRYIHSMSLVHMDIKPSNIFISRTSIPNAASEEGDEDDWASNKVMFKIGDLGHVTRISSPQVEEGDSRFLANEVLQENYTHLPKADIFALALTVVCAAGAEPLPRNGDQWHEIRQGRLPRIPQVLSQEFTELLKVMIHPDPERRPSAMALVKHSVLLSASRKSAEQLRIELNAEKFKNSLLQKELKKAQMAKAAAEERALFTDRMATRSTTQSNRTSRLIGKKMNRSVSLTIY
Test: Selectivity versus WEE1 assay (ADP-Glo enzymatic assay)
Format: biochemical
Details: WEE1 15 nM; ADP-Glo; banded values
pIC50: −log10 of the molar value. Where a name gives a salt, the structure may show the parent alone.
List of pIC50 values.

Past entries and their recorded results:
[
  {
    "compound": "Cc1ccc(O)c(C)c1NC(=O)c1cnc(Nc2nccc3ccncc23)s1",
    "measured_result": "< 4.96"
  },
  {
    "compound": "COc1ccccc1Nc1ncc(C(=O)Nc2c(C)ccc(O)c2C)s1 [BAA-528, TFA salt]",
    "measured_result": "< 4.96"
  },
  {
    "compound": "Cc1cn(CC(=O)N2CCCC2)nc1Nc1ncc(C(=O)Nc2c(C)cc(Cl)c(O)c2C)s1",
    "measured_result": "< 4.96"
  },
  {
    "compound": "Cc1cn(CC(=O)N2CCCC2C)nc1Nc1ncc(C(=O)Nc2c(C)ccc(O)c2C)s1 (centres unmarked)",
    "measured_result": "4.96 to 6.00"
  }
]

Inquiry: Any idea what pIC50 was measured for Cc1ccc(O)c(C)c1NC(=O)c1cnc(Nc2cc(C(=O)N3CCOCC3)n(C)n2)s1 ?
Reply text: 4.96 to 6.00

Inquiry: Request: CCN(C(=O)C(CO)n1cc(C)c(Nc2ncc(C(=O)Nc3c(C)ccc(O)c3C)s2)n1)C1CC1 (centres unmarked)
Reply text: 4.96 to 6.00

Inquiry: Request: CCN(CC)C(=O)Cn1cc(C)c(Nc2ncc(C(=O)Nc3c(C)cc(Br)c(O)c3C)s2)n1
Reply text: < 4.96

Inquiry: Request: Cc1ccc(O)c(C)c1NC(=O)c1cnc(Nc2cccc(N3CCN(C)CC3)n2)s1
Reply text: 4.96 to 6.00

###

Target: WEE1 (Homo sapiens, UniProt P30291)
Construct: purchased Thermo Fisher PR7373A
Assay: Selectivity versus WEE1 assay (ADP-Glo enzymatic assay)
Format: biochemical
Conditions: fold difference in selectivity for PKMYT1 over WEE1; banded; ">N" = at least in this band but could be higher
measurement_type: PKMYT1 vs. WEE1 selectivity

[
  {
    "smiles_str": "CCC(=O)N1CCC(CNc2ncc(C(=O)Nc3c(C)ccc(O)c3C)s2)CC1",
    "measurement_type": "PKMYT1 vs. WEE1 selectivity",
    "measured_result": ">X (100-<1000 fold)"
  },
  {
    "smiles_str": "Cc1cn(-c2cnc(Cl)cc2Br)nc1Nc1ncc(C(=O)Nc2c(C)ccc(O)c2C)s1",
    "measurement_type": "PKMYT1 vs. WEE1 selectivity",
    "measured_result": "W (10-<100 fold)"
  },
  {
    "smiles_str": "Cc1ccc(O)c(C)c1NC(=O)c1cnc(Nc2nc(C)c(-c3cc(F)cc(F)c3)c(C)n2)s1",
    "measurement_type": "PKMYT1 vs. WEE1 selectivity",
    "measured_result": "X (100-<1000 fold)"
  },
  {
    "smiles_str": "Cc1cn(C)nc1Nc1ncc(C(=O)Nc2c(C)ccc(O)c2C)s1",
    "measurement_type": "PKMYT1 vs. WEE1 selectivity",
    "measured_result": "X (100-<1000 fold)"
  },
  {
    "smiles_str": "Cc1ccc(O)c(C)c1NC(=O)c1cnc(N[C@@H](C)c2ccccc2)s1",
    "measurement_type": "PKMYT1 vs. WEE1 selectivity",
    "measured_result": "W (10-<100 fold)"
  },
  {
    "smiles_str": "Cc1ccc(O)c(C)c1NC(=O)c1cnc(Nc2ccn(CC(=O)NCCN3CCNCC3)n2)s1",
    "measurement_type": "PKMYT1 vs. WEE1 selectivity",
    "measured_result": "X (100-<1000 fold)"
  },
  {
    "smiles_str": "CCCN1CC[C@@H](n2ccc(Nc3ncc(C(=O)Nc4c(C)ccc(O)c4C)s3)n2)C1",
    "measurement_type": "PKMYT1 vs. WEE1 selectivity",
    "measured_result": ">X (100-<1000 fold)"
  }
]

Now let's try a different one.
Inquiry: API: value(readout= PKMYT1 vs. WEE1 selectivity, system= WEE1 (Homo sapiens, UniProt P30291), query= Cc1ccc(O)c(C)c1NC(=O)c1cnc(Nc2ccn([C@@H]3CCN(C)C3)n2)s1 )
Reply text: W (10-<100 fold)

###

Molecular target: WEE1 (Homo sapiens)
Construct: purchased Thermo Fisher PR7373A
Experiment: Selectivity versus WEE1 assay (ADP-Glo enzymatic assay)
Assay type: biochemical
Settings: fold difference in selectivity for PKMYT1 over WEE1; banded
measurement_type: PKMYT1 vs. WEE1 selectivity

Past entries and their recorded results:
[
  {
    "molecule": "COc1c(Cl)ncnc1Nc1ncc(C(=O)Nc2c(C)ccc(O)c2C)s1 [BAA-562]",
    "PKMYT1 vs. WEE1 selectivity": "Y (1000-5000 fold)"
  },
  {
    "molecule": "Cc1cn(C(C)C(=O)N2CCN(C)CC2)nc1Nc1ncc(C(=O)Nc2c(C)ccc(O)c2C)s1 (stereo not drawn) [BAA-500]",
    "PKMYT1 vs. WEE1 selectivity": "X (100-<1000 fold)"
  },
  {
    "molecule": "Cc1cn(CC(=O)N2CCCC2c2ccccc2)nc1Nc1ncc(C(=O)Nc2c(C)ccc(O)c2C)s1 (stereo not drawn) [BAA-600]",
    "PKMYT1 vs. WEE1 selectivity": "X (100-<1000 fold)"
  },
  {
    "molecule": "Cc1ccc(O)c(C)c1NC(=O)c1cnc(Nc2ccn(C)n2)o1 [BAA-462]",
    "PKMYT1 vs. WEE1 selectivity": "X (100-<1000 fold)"
  }
]

Inquiry: API: value(readout= PKMYT1 vs. WEE1 selectivity, system= WEE1 (Homo sapiens), query= Cc1ccc(O)c(C)c1NC(=O)c1cnc(Nc2onc(C)c2C(N)=O)s1 [BAA-448] )
Reply text: Y (1000-5000 fold)

Inquiry: Request: Cc1ccc(O)c(C)c1NC(=O)c1cnc(Nc2ccc3ncccc3n2)s1 [BAA-596]
Reply text: Y (1000-5000 fold)

Inquiry: Request: Cc1cn(CC(F)F)nc1Nc1ncc(C(=O)Nc2c(C)ccc(O)c2C)s1 [BAA-478]
Reply text: X (100-<1000 fold)

###

Target: Human PKMYT1 (Homo sapiens, UniProt Q99640)
Construct: Human PKMYT1 75-362 was cloned as a TEV cleavable 6xHis fusion; 6xHis (TEV cleavable) (cleaved yes); made in house; host or cells: bacterial cells
Sequence (Q99640 75-362): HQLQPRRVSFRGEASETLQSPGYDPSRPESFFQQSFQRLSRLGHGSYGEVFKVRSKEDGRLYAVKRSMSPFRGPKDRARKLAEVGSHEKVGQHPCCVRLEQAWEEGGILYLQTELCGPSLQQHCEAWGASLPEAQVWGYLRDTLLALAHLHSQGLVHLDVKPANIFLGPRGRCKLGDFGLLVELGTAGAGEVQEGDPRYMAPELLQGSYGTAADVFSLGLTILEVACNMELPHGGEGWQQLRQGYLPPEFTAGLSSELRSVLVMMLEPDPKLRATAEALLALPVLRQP
Experiment: PKMYT1 biochemical ADP-Glo enzymatic assay
Settings: ADP-Glo; 15 nM PKMYT1 kinase domain, 500 µM ATP, 60 minutes at 26° C.; banded
pIC50: −log10 of the molar value.
List of pIC50 values.

Past entries and their recorded results:
[
  {
    "smiles_str": "CCCCCCCNC(=O)Cn1ccc(Nc2ncc(C(=O)Nc3c(C)ccc(O)c3C)s2)n1",
    "pIC50": "> 7.30"
  },
  {
    "smiles_str": "Cc1c[nH]nc1Nc1ncc(C(=O)Nc2c(C)ccc(O)c2C)s1",
    "pIC50": "> 7.30"
  },
  {
    "smiles_str": "Cc1ccc(O)c(C)c1NC(=O)c1cnc(Nc2ccn(CC(=O)N3CC4(CCC4)C3)n2)s1",
    "pIC50": "> 7.30"
  },
  {
    "smiles_str": "Cc1cc(-c2ccc(F)cc2)cnc1Nc1ncc(C(=O)Nc2c(C)ccc(O)c2C)s1",
    "pIC50": "4.96 to 6.00"
  }
]

Inquiry: API: value(readout= pIC50, system= Human PKMYT1 (Homo sapiens, UniProt Q99640), query= Cc1ccc(O)c(C)c1NC(=O)c1cnc(Nc2nn(-c3ccc(C(F)(F)F)nc3)cc2Cl)s1 )
Reply text: 6.00 to 7.30

Inquiry: Request: Cc1ccc(O)c(C)c1NC(=O)c1cnc(Nc2ccc(F)cc2F)s1
Reply text: 6.00 to 7.30

Inquiry: Request: Cc1ccc(O)c(C)c1NC(=O)c1cnc(Nc2ccn(CC(C)C)n2)s1
Reply text: > 7.30

Inquiry: Request: Cc1ccc(O)c(C)c1NC(=O)c1cnc(Nc2ccn(CC(=O)N3CCC[C@H](O)C3)n2)s1
Reply text: > 7.30

Inquiry: Request: Cc1ccc(O)c(C)c1NC(=O)c1cnc(Nc2cccc(S(=O)(=O)N3CC(F)(F)C(F)(F)C3)c2)s1
Reply text: 4.96 to 6.00

Inquiry: Request: Cc1ccc(O)c(C)c1NC(=O)c1cnc(Nc2ccn(C3COC3)n2)s1
Reply text: > 7.30

Inquiry: Request: COCCOCCNC(=O)Cn1ccc(Nc2ncc(C(=O)Nc3c(C)ccc(O)c3C)s2)n1
Reply text: > 7.30
